Measured values drawn from patent US20130345199A1 for this set.

# System: UniProt:P25106
# Sequence (P25106 whole entry): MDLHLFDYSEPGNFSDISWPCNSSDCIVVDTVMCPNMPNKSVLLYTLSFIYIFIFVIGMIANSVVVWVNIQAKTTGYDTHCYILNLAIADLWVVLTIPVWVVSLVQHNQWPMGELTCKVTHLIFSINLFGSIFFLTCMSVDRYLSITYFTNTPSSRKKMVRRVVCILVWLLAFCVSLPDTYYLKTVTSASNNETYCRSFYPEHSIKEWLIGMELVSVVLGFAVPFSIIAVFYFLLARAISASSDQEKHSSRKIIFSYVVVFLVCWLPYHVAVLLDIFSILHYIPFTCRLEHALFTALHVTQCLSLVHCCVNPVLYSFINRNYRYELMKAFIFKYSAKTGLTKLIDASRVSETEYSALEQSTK
# Test description: PathHunter CHO-K1 CXCR7 b-arrestin assay (agonistic activity)
# Measurement setup: PathHunter CHO-K1 CXCR7 b-arrestin cell line, 90 minutes at 37° C.
Value type: pEC50
One number for each entry, as −log10 of the molar value.

Molecule: CN(C(=O)C1CCN(Cc2cccc(NC(=O)c3cccs3)c2)CC1)C1CCCCC1
pEC50: 7.06
--
Molecule: CC(C)NC(=O)C1CCN(Cc2cccc(NC(=O)c3ccc(Cl)cc3)c2)CC1
pEC50: 9.10
--
Molecule: CCC(C)NC(=O)C1CCCN(Cc2cccc(NC(=O)c3cccc(C(F)(F)F)n3)c2)CC1 (racemic)
pEC50: 8.22
--
Molecule: O=C(Nc1cccc(CN2CCC(C(=O)NC3CCCCC3)CC2)c1)c1ccc(F)c[n+]1[O-]
pEC50: 8.40
--
Molecule: CCN(CC)C(=O)C1CCN(Cc2cccc(NC(=O)c3cccs3)c2)CC1
pEC50: 7.15
--
Molecule: Cc1cncc(C(=O)Nc2cccc(CN3CCC(C(=O)N4CC[C@H](F)C4)CC3)c2)c1
pEC50: 6.71

# return pEC50 for each item in the list
1. O=C(Nc1cccc(CN2CCC(C(=O)NCc3cccc(Cl)c3)CC2)c1)c1ccc(Cl)cc1
2. Cc1cncc(C(=O)Nc2cccc(CN3CCC(C)(C(=O)NC4CCCCC4)CC3)c2)c1

1: 6.35; 2: 6.71
